# protocolNotes: Hemolytic activity against human RBC after 1 hr by microplate reader analysis
# Assay type: ADME, cell-based, Erythrocyte
# measurementSetup: red blood cells
Where a SMILES comes first, the peptide text is derived from it. [ ]: non-standard residue; d: D form. Bip = N[C@@H](Cc1ccc(-c2ccccc2)cc1)C(=O)O
We begin with a simple list: items and their reported HC50 at 1 h.

molecule: CC(C)C[C@H](NC(=O)[C@H](Cc1ccc(-c2ccccc2)cc1)NC(=O)[C@H](CC(=O)O)NC(=O)[C@H](CCCCN)NC(=O)[C@H](CC(C)C)NC(=O)[C@H](CCCNC(=N)N)NC(=O)[C@H](CCC(N)=O)NC(=O)[C@@H](NC(=O)[C@H](CC(C)C)NC(=O)[C@H](CCCNC(=N)N)NC(=O)[C@H](CCCCN)NC(=O)[C@H](Cc1ccc(-c2ccccc2)cc1)NC(=O)CN)C(C)C)C(=O)N[C@@H](CCCNC(=N)N)C(=O)N[C@@H](CC(N)=O)C(=O)N[C@@H](CC(C)C)C(=O)N[C@H](C(N)=O)C(C)C (H-G[Bip]KRLVQRLKD[Bip]LRNLV-NH2)
HC50 at 1 h: 120 µM

Would you kindly look at the next entry?
Any idea what HC50 at 1 h was measured for CC[C@H](C)[C@H](NC(=O)[C@H](CCCNC(=N)N)NC(=O)[C@H](CCC(N)=O)NC(=O)[C@@H](NC(=O)[C@@H](NC(=O)[C@H](CCCNC(=N)N)NC(=O)[C@H](CCCCN)NC(=O)[C@H](Cc1ccccc1)NC(=O)CN)[C@@H](C)CC)C(C)C)C(=O)N[C@@H](CCCCN)C(=O)N[C@@H](CC(=O)O)C(=O)N[C@@H](Cc1ccccc1)C(=O)N[C@@H](CC(C)C)C(=O)N[C@@H](CCCNC(=N)N)C(=O)N[C@@H](CC(N)=O)C(=O)N[C@@H](CC(C)C)C(=O)N[C@H](C(=O)O)C(C)C (H-GFKRIVQRIKDFLRNLV-OH) ?
120 µM
